molecular target: NPR-3 (Caenorhabditis elegans, UniProt P90745); construct: expressed in transfected cells; host or cells: HEK293; assay: cAMP reporter gene assay, Gi/o (inhibition of forskolin-induced cAMP), NPR-3; assay type: cell-based, C. elegans; details: 10 µM peptide; 1 µM forskolin set to 1.00; transiently transfected HEK293 cells; mean of at least three independent experiments
Sequence (P90745 whole entry): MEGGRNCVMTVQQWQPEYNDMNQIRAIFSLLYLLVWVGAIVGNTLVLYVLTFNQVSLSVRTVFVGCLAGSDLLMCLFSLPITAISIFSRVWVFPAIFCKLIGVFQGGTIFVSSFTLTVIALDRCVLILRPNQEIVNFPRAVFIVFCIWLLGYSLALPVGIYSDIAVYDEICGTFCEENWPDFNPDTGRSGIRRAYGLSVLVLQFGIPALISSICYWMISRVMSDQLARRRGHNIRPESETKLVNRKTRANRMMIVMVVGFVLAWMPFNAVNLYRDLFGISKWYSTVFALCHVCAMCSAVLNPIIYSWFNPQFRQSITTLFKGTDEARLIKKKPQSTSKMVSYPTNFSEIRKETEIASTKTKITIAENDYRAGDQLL
Collected cAMP, x-fold of forskolin (mean), NPR-3 values appear next to each entry.

Example results:
substance	result
AGSDPNFLRF-NH2 [FLP-1-2, C. elegans FMRFamide-like peptide, C-terminally amidated, synthesized by SPPS]	1.02 x-fold of forskolin
ASPSFIRF-NH2 [FLP-4-2, C. elegans FMRFamide-like peptide, C-terminally amidated, synthesized by SPPS]	0.83 x-fold of forskolin

// APKPKFIRF-NH2 [FLP-5-1, C. elegans FMRFamide-like peptide, C-terminally amidated, synthesized by SPPS] : cAMP, x-fold of forskolin (mean), NPR-3 value = 0.86 x-fold of forskolin

// NPENDTPFGTMRF-NH2 [FLP-3-4, C. elegans FMRFamide-like peptide, C-terminally amidated, synthesized by SPPS] : cAMP, x-fold of forskolin (mean), NPR-3 value = 0.89 x-fold of forskolin

// APLEPVYPGDNATPEQMAQYAADLRRYINMLTRPRY-NH2 [PP, human pancreatic polypeptide, reference compound] : cAMP, x-fold of forskolin (mean), NPR-3 value = 1.25 x-fold of forskolin

====

Target: NPR-11 (Caenorhabditis elegans, UniProt Q18179)
Construct: expressed in transfected cells; host or cells: HEK293, transient
Sequence (Q18179 1-402): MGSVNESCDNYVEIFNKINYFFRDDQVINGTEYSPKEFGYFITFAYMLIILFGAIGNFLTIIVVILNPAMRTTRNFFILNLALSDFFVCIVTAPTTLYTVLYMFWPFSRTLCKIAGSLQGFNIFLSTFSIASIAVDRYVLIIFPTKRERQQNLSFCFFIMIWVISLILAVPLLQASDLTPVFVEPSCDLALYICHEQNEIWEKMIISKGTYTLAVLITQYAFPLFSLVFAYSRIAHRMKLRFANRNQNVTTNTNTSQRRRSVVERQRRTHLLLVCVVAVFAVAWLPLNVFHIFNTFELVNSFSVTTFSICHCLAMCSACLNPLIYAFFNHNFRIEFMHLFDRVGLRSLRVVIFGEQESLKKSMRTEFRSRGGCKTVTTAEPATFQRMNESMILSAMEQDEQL
Assay: cAMP reporter gene assay, Gi/o (inhibition of forskolin-induced cAMP), NPR-11
Assay type: cell-based, C. elegans
Ends that are not written are not given here.
readout_type: pEC50
// field semantics: pEC50 = negative decimal log of concentration (mol/L)

substance	system_tested	pEC50
GLGPRPLRF-NH2 [FLP-21]	NPR-11 (Caenorhabditis elegans, UniProt Q18179)	6.99

Short answer on NPR-11 (Caenorhabditis elegans, UniProt Q18179) for KHEYLRF-NH2 [FLP-14] , pEC50: 5.72

Short answer on NPR-11 (Caenorhabditis elegans, UniProt Q18179) for RGPSGPLRF-NH2 [FLP-15-2] , pEC50: 6.00

====

Collected cAMP, x-fold of forskolin (mean), NPR-11 values appear next to each entry.
molecular target: NPR-11 (Caenorhabditis elegans, UniProt Q18179); construct: expressed in transfected cells; host or cells: HEK293, transient; assay: cAMP reporter gene assay, Gi/o (inhibition of forskolin-induced cAMP), NPR-11; assay type: cell-based, C. elegans; settings: 10 µM peptide; 1 µM forskolin set to 1.00; transiently transfected HEK293 cells; mean of at least three independent experiments

Example results:
substance	system_tested	cAMP, x-fold of forskolin (mean), NPR-11
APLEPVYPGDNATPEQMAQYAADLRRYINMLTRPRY-NH2 [PP, human pancreatic polypeptide, reference compound]	NPR-11 (Caenorhabditis elegans, UniProt Q18179)	0.14 x-fold of forskolin
ASPSFIRF-NH2 [FLP-4-2, C. elegans FMRFamide-like peptide, C-terminally amidated, synthesized by SPPS]	NPR-11 (Caenorhabditis elegans, UniProt Q18179)	0.83 x-fold of forskolin
NPENDTPFGTMRF-NH2 [FLP-3-4, C. elegans FMRFamide-like peptide, C-terminally amidated, synthesized by SPPS]	NPR-11 (Caenorhabditis elegans, UniProt Q18179)	0.97 x-fold of forskolin
TSGPLGNLAEELNGYSRKKGGFSFRF-NH2 [QRFP26, human pyroglutamylated RFamide peptide, 26 residues, reference compound]	NPR-11 (Caenorhabditis elegans, UniProt Q18179)	0.06 x-fold of forskolin
AGSDPNFLRF-NH2 [FLP-1-2, C. elegans FMRFamide-like peptide, C-terminally amidated, synthesized by SPPS]	NPR-11 (Caenorhabditis elegans, UniProt Q18179)	0.72 x-fold of forskolin

// APKPKFIRF-NH2 [FLP-5-1, C. elegans FMRFamide-like peptide, C-terminally amidated, synthesized by SPPS] : cAMP, x-fold of forskolin (mean), NPR-11 value = 0.48 x-fold of forskolin

// EASAFGDIIGELKGKGLGGRMRF-NH2 [FLP-27, NPY-like C. elegans FLP with C-terminal RxRF/Ya signature] : cAMP, x-fold of forskolin (mean), NPR-11 value = 0.20 x-fold of forskolin

// TPDINPAWYASRGIRPVGRF-NH2 [PrRP20, human prolactin-releasing peptide, 20 residues, reference compound] : cAMP, x-fold of forskolin (mean), NPR-11 value = 0.65 x-fold of forskolin

// APLEGFEDMSGFLRTIDGIQKPRF-NH2 [FLP-33, NPY-like C. elegans FLP with C-terminal RxRF/Ya signature] : cAMP, x-fold of forskolin (mean), NPR-11 value = 0.21 x-fold of forskolin

====

Target: NPR-11 (Caenorhabditis elegans, UniProt Q18179)
Construct: expressed in transfected cells; host or cells: HEK293, transient
Sequence (Q18179 1-402): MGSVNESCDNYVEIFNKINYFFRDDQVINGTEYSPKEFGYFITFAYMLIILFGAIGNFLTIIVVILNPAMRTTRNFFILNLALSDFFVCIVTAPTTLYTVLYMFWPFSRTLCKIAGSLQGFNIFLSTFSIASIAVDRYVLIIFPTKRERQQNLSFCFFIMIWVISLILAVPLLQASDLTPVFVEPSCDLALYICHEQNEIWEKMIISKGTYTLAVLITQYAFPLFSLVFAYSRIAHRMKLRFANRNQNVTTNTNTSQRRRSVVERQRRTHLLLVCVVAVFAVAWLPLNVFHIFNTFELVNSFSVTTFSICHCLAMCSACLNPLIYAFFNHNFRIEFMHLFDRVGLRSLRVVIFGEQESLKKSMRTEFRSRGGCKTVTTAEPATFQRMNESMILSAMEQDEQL
Assay: IP accumulation assay, chimeric GαΔ6qi4myr, NPR-11
Type: cell-based, C. elegans
Conditions: 0.1 µM peptide (Table S8), 1 h, HBSS + 20 mM LiCl; HEK293 receptor + GαΔ6qi4myr; HTRF IP-One; mean of >=3 independent experiments
Collected IP accumulation with GαΔ6qi4myr, NPR-11 values appear next to each entry.

Example results:
substance	IP accumulation with GαΔ6qi4myr, NPR-11
AGSDPNFLRF-NH2 [FLP-1-2, C. elegans FMRFamide-like peptide, C-terminally amidated, synthesized by SPPS]	0.92 x-fold of basal
ASPSFIRF-NH2 [FLP-4-2, C. elegans FMRFamide-like peptide, C-terminally amidated, synthesized by SPPS]	1.03 x-fold of basal
APKPKFIRF-NH2 [FLP-5-1, C. elegans FMRFamide-like peptide, C-terminally amidated, synthesized by SPPS]	1.03 x-fold of basal

Below: the item to evaluate.
// NPENDTPFGTMRF-NH2 [FLP-3-4, C. elegans FMRFamide-like peptide, C-terminally amidated, synthesized by SPPS] : IP accumulation with GαΔ6qi4myr, NPR-11 value = 0.92 x-fold of basal

====

Collected IP accumulation, NPR-5b values appear next to each entry.
Target: NPR-5b (Caenorhabditis elegans)
Sequence (Q6F3C9 1-433): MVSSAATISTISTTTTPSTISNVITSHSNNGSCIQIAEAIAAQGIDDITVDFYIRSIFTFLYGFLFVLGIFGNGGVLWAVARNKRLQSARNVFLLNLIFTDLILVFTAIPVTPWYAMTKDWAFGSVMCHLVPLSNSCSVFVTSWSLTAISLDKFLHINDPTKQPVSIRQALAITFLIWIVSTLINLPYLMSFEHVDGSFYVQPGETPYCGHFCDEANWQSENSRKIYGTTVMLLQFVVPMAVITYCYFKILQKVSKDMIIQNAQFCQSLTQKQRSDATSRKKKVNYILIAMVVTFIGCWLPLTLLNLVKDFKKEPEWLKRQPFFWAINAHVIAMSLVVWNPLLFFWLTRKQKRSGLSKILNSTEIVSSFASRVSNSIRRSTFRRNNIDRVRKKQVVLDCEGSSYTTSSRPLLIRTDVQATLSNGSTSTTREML
Test: IP accumulation assay (Table S8), NPR-5b
Format: cell-based, C. elegans
Details: 0.1 µM peptide, 1 h, HBSS + 20 mM LiCl; transfected HEK293, Table S8 (title: chimeric GαΔ6qi4myr); HTRF IP-One; mean of >=3 independent experiments

substance	IP accumulation, NPR-5b
AGSDPNFLRF-NH2 [FLP-1-2, C. elegans FMRFamide-like peptide, C-terminally amidated, synthesized by SPPS]	0.99 x-fold of basal
APKPKFIRF-NH2 [FLP-5-1, C. elegans FMRFamide-like peptide, C-terminally amidated, synthesized by SPPS]	0.91 x-fold of basal
ASPSFIRF-NH2 [FLP-4-2, C. elegans FMRFamide-like peptide, C-terminally amidated, synthesized by SPPS]	0.90 x-fold of basal

Below: the item to evaluate.
// NPENDTPFGTMRF-NH2 [FLP-3-4, C. elegans FMRFamide-like peptide, C-terminally amidated, synthesized by SPPS] : IP accumulation, NPR-5b value = 1.19 x-fold of basal

Values compiled from paper PMC6751662.
